Provenance of the data: paper PMC10501326

- Protocol details: Plasma pharmacokinetics (LC/MS-MS)
- Type: in vivo, human
- Settings: human, plasma, oral, 217 mg, Cohort 6 (217 mg); Cycle 1, Day 1; read-out: Mean Cmax
Outcome measure: Cmax (ng/mL)

| Structure smiles | Outcome measure | Reported result |
| --- | --- | --- |
| CC(C)(C)c1ccc(Oc2ccc(N)cn2)cc1 | Cmax | 731 |

###

- Protocol details: Plasma pharmacokinetics (LC/MS-MS)
- Format: in vivo, human
- Settings: human, plasma, oral, 217 mg, Cohort 6 (217 mg); Cycle 1, Day 8; read-out: Mean AUC24

| Structure smiles | AUC / ng·h/mL |
| --- | --- |
| CC(C)(C)c1ccc(Oc2ccc(N)cn2)cc1 | 4250 |

###

- Protocol details: Plasma pharmacokinetics (LC/MS-MS)
- Format: in vivo, human
- Settings: human, plasma, oral, 400 mg, Cohort 11 (400 mg BID 5/2); Cycle 1, Day 8; read-out: Mean AUC24
Outcome measure: AUC (ng·h/mL)

| Compound | Outcome measure | Reported result |
| --- | --- | --- |
| CC(C)(C)c1ccc(Oc2ccc(N)cn2)cc1 [CB-103] | AUC | 14100 |

###

- Protocol details: Plasma pharmacokinetics (LC/MS-MS)
- Assay type: in vivo, human
- Settings: human, plasma, oral, 13 mg, Cohort 1 (13 mg); Cycle 1, Day 8; read-out: Mean AUC24

| Compound | AUC, ng·h/mL |
| --- | --- |
| CC(C)(C)c1ccc(Oc2ccc(N)cn2)cc1 [CB-103] | 433 |

###

- Protocol details: Plasma pharmacokinetics (LC/MS-MS)
- Assay type: in vivo, human
- Settings: human, plasma, oral, 300 mg, Cohort 10 (300 mg BID 5/2); Cycle 1, Day 1; read-out: Mean AUC24
Outcome measure: AUC (ng·h/mL)

| Molecule | Reported result |
| --- | --- |
| CC(C)(C)c1ccc(Oc2ccc(N)cn2)cc1 [CB-103] | 10400 |

###

- Protocol details: Plasma pharmacokinetics (LC/MS-MS)
- Type: in vivo, human
- Settings: human, plasma, oral, 500 mg, Cohort 12 (500 mg BID 5/2); Cycle 1, Day 8; read-out: Mean AUC24
Outcome measure: AUC

| Compound | Reported result |
| --- | --- |
| CC(C)(C)c1ccc(Oc2ccc(N)cn2)cc1 [CB-103] | 18600 ng·h/mL |

###

- Protocol details: Plasma pharmacokinetics (LC/MS-MS)
- Type: in vivo, human
- Settings: human, plasma, oral, 522 mg, Cohort 8 (522 mg); Cycle 1, Day 1; read-out: Mean AUC24

| Compound | AUC / ng·h/mL |
| --- | --- |
| CC(C)(C)c1ccc(Oc2ccc(N)cn2)cc1 [CB-103] | 5910 |

###

- Protocol details: Plasma pharmacokinetics (LC/MS-MS)
- Assay type: in vivo, human
- Settings: human, plasma, oral, 148 mg, Cohort 5 (148 mg); Cycle 1, Day 1; read-out: Mean AUC24
- Description: Plasma pharmacokinetics were assessed for CB-103 via blood samples taken on days 1 (predose, 0.5, 1, 2, 4, 6, 8 hours postdose ± 5 minutes, and 12 hours postdose ± 15 minutes), 2 (24-hour post-day 1, predose), 3 (predose), 8 (predose, 0.5, 1, 2, 4, 6, and 8 hour postdose ± 5 minutes), 9 (24-hour post-day 8, predose), 15, and 22 (predose, and 1 hour postdose) in cycle 1. […]
Outcome measure: AUC (ng·h/mL)

| Structure smiles | Outcome measure | Reported result |
| --- | --- | --- |
| CC(C)(C)c1ccc(Oc2ccc(N)cn2)cc1 | AUC | 1260 |

###

- Protocol details: Plasma pharmacokinetics (LC/MS-MS)
- Assay type: in vivo, human
- Settings: human, plasma, oral, 13 mg, Cohort 1 (13 mg); Cycle 1, Day 8; read-out: Mean Cmax
- Method: Plasma pharmacokinetics were assessed for CB-103 via blood samples taken on days 1 (predose, 0.5, 1, 2, 4, 6, 8 hours postdose ± 5 minutes, and 12 hours postdose ± 15 minutes), 2 (24-hour post-day 1, predose), 3 (predose), 8 (predose, 0.5, 1, 2, 4, 6, and 8 hour postdose ± 5 minutes), 9 (24-hour post-day 8, predose), 15, and 22 (predose, and 1 hour postdose) in cycle 1. […]

| Compound | Cmax (ng/mL) |
| --- | --- |
| CC(C)(C)c1ccc(Oc2ccc(N)cn2)cc1 [CB-103] | 58.7 |

###

- Protocol details: Plasma pharmacokinetics (LC/MS-MS)
- Assay type: in vivo, human
- Settings: human, plasma, oral, 400 mg, Cohort 11 (400 mg BID 5/2); Cycle 1, Day 8; read-out: Mean Cmax
Outcome measure: Cmax

| Structure smiles | Outcome measure | Reported result |
| --- | --- | --- |
| CC(C)(C)c1ccc(Oc2ccc(N)cn2)cc1 | Cmax | 2400 ng/mL |

###

- Protocol details: Plasma pharmacokinetics (LC/MS-MS)
- Type: in vivo, human
- Settings: human, plasma, oral, 300 mg, Cohort 10 (300 mg BID 5/2); Cycle 1, Day 8; read-out: Mean Cmax

| Structure smiles | Cmax / µg/mL |
| --- | --- |
| CC(C)(C)c1ccc(Oc2ccc(N)cn2)cc1 | 1.39 |

###

- Protocol details: Plasma pharmacokinetics (LC/MS-MS)
- Type: in vivo, human
- Settings: human, plasma, oral, 348 mg, Cohort 7 (348 mg); Cycle 1, Day 1; read-out: Mean AUC24

| Structure smiles | Result units | AUC |
| --- | --- | --- |
| CC(C)(C)c1ccc(Oc2ccc(N)cn2)cc1 | ng·h/mL | 3520 |

###

- Protocol details: Plasma pharmacokinetics (LC/MS-MS)
- Assay type: in vivo, human
- Settings: human, plasma, oral, 250 mg, Cohort 9 (250 mg BID); Cycle 1, Day 1; read-out: Mean AUC24

| Structure smiles | AUC / ng·h/mL |
| --- | --- |
| CC(C)(C)c1ccc(Oc2ccc(N)cn2)cc1 | 6140 |

###

- Protocol details: Plasma pharmacokinetics (LC/MS-MS)
- Format: in vivo, human
- Settings: human, plasma, oral, 217 mg, Cohort 6 (217 mg); Cycle 1, Day 8; read-out: Mean Cmax

| Compound | Cmax / ng/mL |
| --- | --- |
| CC(C)(C)c1ccc(Oc2ccc(N)cn2)cc1 [CB-103] | 912 |

###

- Protocol details: Plasma pharmacokinetics (LC/MS-MS)
- Format: in vivo, human
- Settings: human, plasma, oral, cycle 1 day 8; SD, 42.6; read-out: Plasma elimination half-life (t1/2) (converted)
Outcome measure: half-life (h)

| Structure smiles | Reported result |
| --- | --- |
| CC(C)(C)c1ccc(Oc2ccc(N)cn2)cc1 | 37.7 |

###

- Protocol details: Plasma pharmacokinetics (LC/MS-MS)
- Type: in vivo, human
- Settings: human, plasma, oral, 522 mg, Cohort 8 (522 mg); Cycle 1, Day 8; read-out: Mean Cmax

| Structure smiles | Cmax (ng/mL) |
| --- | --- |
| CC(C)(C)c1ccc(Oc2ccc(N)cn2)cc1 | 1740 |

###

- Protocol details: Plasma pharmacokinetics (LC/MS-MS)
- Format: in vivo, human
- Settings: human, plasma, oral, 522 mg, Cohort 8 (522 mg); Cycle 1, Day 8; read-out: Mean AUC24
- Method: Plasma pharmacokinetics were assessed for CB-103 via blood samples taken on days 1 (predose, 0.5, 1, 2, 4, 6, 8 hours postdose ± 5 minutes, and 12 hours postdose ± 15 minutes), 2 (24-hour post-day 1, predose), 3 (predose), 8 (predose, 0.5, 1, 2, 4, 6, and 8 hour postdose ± 5 minutes), 9 (24-hour post-day 8, predose), 15, and 22 (predose, and 1 hour postdose) in cycle 1. […]

| Compound | AUC (ng·h/mL) |
| --- | --- |
| CC(C)(C)c1ccc(Oc2ccc(N)cn2)cc1 [CB-103] | 13500 |

###

- Protocol details: Plasma pharmacokinetics (LC/MS-MS)
- Type: in vivo, human
- Settings: human, plasma, oral, 148 mg, Cohort 5 (148 mg); Cycle 1, Day 8; read-out: Mean Cmax

| Structure smiles | Cmax, ng/mL |
| --- | --- |
| CC(C)(C)c1ccc(Oc2ccc(N)cn2)cc1 | 427 |

###

- Protocol details: Plasma pharmacokinetics (LC/MS-MS)
- Type: in vivo, human
- Settings: human, plasma, oral, cycle 1 day 1; SD, 8.5; read-out: Plasma elimination half-life (t1/2) (converted)

| Structure smiles | half-life, h |
| --- | --- |
| CC(C)(C)c1ccc(Oc2ccc(N)cn2)cc1 | 16.5 |

###

- Protocol details: Plasma pharmacokinetics (LC/MS-MS)
- Assay type: in vivo, human
- Settings: human, plasma, oral, 13 mg, Cohort 1 (13 mg); Cycle 1, Day 1; read-out: Mean AUC24

| Structure smiles | AUC, ng·h/mL |
| --- | --- |
| CC(C)(C)c1ccc(Oc2ccc(N)cn2)cc1 | 174 |
